MEASURED ON: IRAK4 enzyme (Homo sapiens (Human))
Sequence (Q9NWZ3 whole entry): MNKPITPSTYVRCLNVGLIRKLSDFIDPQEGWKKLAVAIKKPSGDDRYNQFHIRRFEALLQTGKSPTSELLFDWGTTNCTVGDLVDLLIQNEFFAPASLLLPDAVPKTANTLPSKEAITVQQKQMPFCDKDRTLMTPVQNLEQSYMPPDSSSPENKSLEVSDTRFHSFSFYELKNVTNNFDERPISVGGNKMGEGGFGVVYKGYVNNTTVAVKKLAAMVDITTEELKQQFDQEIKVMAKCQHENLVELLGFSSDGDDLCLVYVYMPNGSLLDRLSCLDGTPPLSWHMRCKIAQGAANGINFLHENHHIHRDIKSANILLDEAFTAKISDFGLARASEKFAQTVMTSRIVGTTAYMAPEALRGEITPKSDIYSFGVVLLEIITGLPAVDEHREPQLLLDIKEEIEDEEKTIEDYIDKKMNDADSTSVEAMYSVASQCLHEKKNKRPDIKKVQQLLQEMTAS
PROTOCOL NOTES: biochemical
Type: biochemical
REPORTED CONDITIONS: IRAK4 enzyme, TR-FRET, 500 μM ATP
pIC50: −log10 of the molar value.
Reported pIC50 values for the following compounds.
OBSERVED PROPERTY: pIC50

> print(dat)
                                   compound                          measured.on  observed.property  qualifier  obs.value
1  CC(C)(O)[C@H](F)CNC(=O)c1cnc(-c2ccc3cc(C#N)cnn23)cc1N[C@@H]1CCOC1  IRAK4 enzyme (Homo sapiens (Human))              pIC50          >       9.00
2  CC(C)Nc1cc(-c2ccc3cc(C#N)cnn23)ncc1C(=O)NC1CC1CO (single isomer, unassigned) [Example 18]  IRAK4 enzyme (Homo sapiens (Human))              pIC50          =       8.05
3  CN1CCN(C(=O)C23CCC(Nc4cc(-c5ccc6cc(C#N)cnn56)ncc4C(=O)NC[C@@H](F)C(C)(C)O)(CC2)CC3)CC1  IRAK4 enzyme (Homo sapiens (Human))              pIC50          =       8.70
4  N#Cc1cnn2c(-c3cc(NC45CCC(O)(CC4)CC5)c(C(=O)N[C@@H]4CCNC4=O)cn3)ccc2c1  IRAK4 enzyme (Homo sapiens (Human))              pIC50          >       9.00
5  COC(=O)N1CC[C@@H]1CNc1cc(-c2ccc3cc(C#N)cnn23)ncc1C(=O)NC[C@@H](F)C(C)(C)O  IRAK4 enzyme (Homo sapiens (Human))              pIC50          =       8.70
6  CCCc1nccc(Nc2cc(-c3ccc4cc(C#N)cnn34)ncc2C(=O)NC[C@@H](F)C(C)(C)O)n1  IRAK4 enzyme (Homo sapiens (Human))              pIC50          =       9.00
7  Cc1nnc(-c2ccc(Nc3cc(-c4ccc5cc(C#N)cnn45)ncc3C(=O)NC[C@@H](F)C(C)(C)O)cc2)[nH]1  IRAK4 enzyme (Homo sapiens (Human))              pIC50          >       9.00
